The origin of these recorded values is patent US20100278782A1.

# Test system: primary rat hepatocytes
# experimental.protocol: Inhibition of DNA synthesis (3H-methylthymidine incorporation) in EGF-stimulated primary rat hepatocytes
# Format: cell-based
# run.conditions: DNA synthesis at day 3 (72 h), EGF 50 ng/ml
result.type: Concentration achieving maximal (100%) inhibition of rat primary hepatocyte proliferation (µM)
Answers are plain numbers, in µM.

>>> reported_value("CN(C)c1ccc(C(=O)NCCCCCC(=O)NO)cc1")
10

For every item below, please supply its Concentration achieving maximal (100%) inhibition of rat primary hepatocyte proliferation.
1. O=C(CCCCCNC(=O)c1ccccc1)NO
2. CN(C)c1ccc(C(=O)NCCCCC(=O)NO)cc1
3. O=C(CCCCCNC(=O)c1ccc(N2CCCC2)cc1)NO
4. O=C(CCCCCNC(=O)c1cc2ccccc2[nH]1)NO

50
50
7.5
7.5
